Test description: Toxicity liver stage against HepG2, at 10uM
Format: cell-based
Set-up: test concentration 10 uM, cell line HepG2-A16-CD81EGFP
Run parameters: human, HepG2-A16-CD81EGFP cells; read-out: INHIBITION
Each entry below carries its recorded cytotoxicity at 10 µM.
Entry rule: numbers only, all in %.

For orientation, consider the following solved cases.
>>> print(df.to_string())
                                   compound  observed_measurement
0  Cc1ccc(N2CCN(C(=O)CN3C[C@H]4CC[C@@H]3C4)CC2=O)cc1                 -1.41
1  Cc1cc2nc(SCC(=O)N3CCCC3)n(-c3ccccc3)c(=O)c2[nH]1                 -6.34
2  CCc1cc(=O)n(CC(=O)N2CCCC2)c(-c2cccc(F)c2)n1                  6.75
3             CN1CCC2(CCN(Cc3nccs3)CC2)C1=O                 -3.03
4  c1ccc(-c2nc(CN3CCc4c(ncn4C4CC4)C3)cs2)cc1                 -8.65

So for O=C(c1cc2c([nH]c1=O)CCC2)N1CCCCC1c1cccc(F)c1 (stereo unspecified) , the logged cytotoxicity at 10 µM turned out to be -6.22

Sample COc1cc(C(C)=O)ccc1OCC(=O)N(C)Cc1cnn(C)c1 ; cytotoxicity at 10 µM observed: -3.88

Reported cytotoxicity at 10 µM ( CNC(=O)N1CCC2(CC1)C(=O)N(C)c1c(F)cccc12 ) = -5.86

---

Test description: Toxicity liver stage against HepG2, at 10uM
Type: cell-based
Set-up: test concentration 10 uM, cell line HepG2-A16-CD81EGFP
Run parameters: human, HepG2-A16-CD81EGFP cells; read-out: INHIBITION
We begin with a simple list: items and their reported cytotoxicity at 10 µM.
Use % as the unit, but write only the number.

In the examples that follow, each entry is paired with its recorded cytotoxicity at 10 µM.
In [3]: df
Out[3]:
                                   compound            metric_name  observed_measurement
0  CCCS(=O)(=O)NC(=O)c1ccc(-n2nc(C)cc2C)cc1  cytotoxicity at 10 µM                  1.36
1  O=C(C1CCOC1)N1CCC2(CC1)COC2 (stereo unspecified)  cytotoxicity at 10 µM                  3.06
2  CO[C@@H]1CCN(Cc2ccoc2)[C@@H]2CN(Cc3ccco3)C[C@@H]21  cytotoxicity at 10 µM                   8.1
3  COc1ccc(CCCC(=O)N2CCCC(n3cccn3)C2)cc1 (stereo unspecified)  cytotoxicity at 10 µM                 -7.36
4  CC1=N[C@@]2(CC[C@@H]3CN(CC(=O)N(C)C)C[C@@H]32)C(=O)N1CC1CC1  cytotoxicity at 10 µM                  -3.9

Measured cytotoxicity at 10 µM, Cc1csc(CN2CCC3(CC2)COC(COCC2CC2)C3)n1 (stereo unspecified) : -108

The value of cytotoxicity at 10 µM measured for the compound Cc1cccc(-c2ccc(C(=O)NCCN3CCOCC3)c(=O)[nH]2)c1 turned out to be -5.88

O=C(NCc1ccccn1)[C@]12COC[C@H]1CN(Cc1ccccc1F)C2 yielded cytotoxicity at 10 µM of 6.81

Reported cytotoxicity at 10 µM of CCC(CC)C(=O)NCc1cnn(CC)c1 : 7.19

The compound listed as O=C(c1sccc1C1CC1)N1CCN(Cc2cscn2)CC1 shows cytotoxicity at 10 µM equal to 1.97

The recorded cytotoxicity at 10 µM for entry Cn1ncc2c(NC3CCCN(C(=O)C4CC4)C3)nc(C(C)(C)C)nc21 (stereo unspecified) equals 12

---

Test description: Toxicity liver stage against HepG2, at 10uM
Assay type: cell-based
Parameters: test concentration 10 uM, cell line HepG2-A16-CD81EGFP
Run parameters: human, HepG2-A16-CD81EGFP cells; read-out: INHIBITION
Reported values of cytotoxicity at 10 µM for individual entries
Please respond with the number in % and leave the unit unwritten.

In [3]: df
Out[3]:
                                   compound  observed_measurement
0   CN1CCN(c2ncnc3c2CCN(c2ncc(F)cn2)CC3)CC1                  7.61
1  O=C1COC2(CCN(S(=O)(=O)C3CC3)CC2)CN1c1ccsc1                  6.12

Per the record, CN(Cc1ccccc1F)C(=O)CS(=O)(=O)Cc1ccc(Cl)c(Cl)c1 has cytotoxicity at 10 µM of 3.2

Data point: CCc1ncncc1C(=O)NCCNS(=O)(=O)c1ccc(C)cc1 ; cytotoxicity at 10 µM = -5.95

# cytotoxicity at 10 µM (compound: CCCc1ncc(CN(CCOC)Cc2cccs2)cn1 ) is -0.683

---

Test description: Toxicity liver stage against HepG2, at 10uM
Format: cell-based
Parameters: test concentration 10 uM, cell line HepG2-A16-CD81EGFP
Run parameters: human, HepG2-A16-CD81EGFP cells; read-out: INHIBITION
Metric name: cytotoxicity at 10 µM (%)
Value expressed in %; do not type the unit.

>>> df
                                   compound            metric_name  observed_measurement
0  Fc1ccc(-c2nc(CN3CCOC(Cn4cccn4)C3)co2)cc1 (configuration not stated)  cytotoxicity at 10 µM                 -3.78
1    Cc1cccc(SC2CCN(Cc3nc(CC4CC4)no3)CC2)c1  cytotoxicity at 10 µM                 -6.51
2  Cn1cnnc1S(=O)(=O)C1CCN(S(=O)(=O)c2ccccc2F)CC1  cytotoxicity at 10 µM                 -2.08
3  CC1C(=O)Nc2cccnc2N1S(=O)(=O)c1cc(F)cc(F)c1 (configuration not stated)  cytotoxicity at 10 µM                 -5.26
4             COc1ncccc1CNC(=O)CN1CCCCCC1=O  cytotoxicity at 10 µM                 -10.4

For record COc1ccccc1[S+]([O-])CC(=O)NCc1cc(F)cc(F)c1 (configuration not stated) the listed cytotoxicity at 10 µM is 24.3

cytotoxicity at 10 µM in this record for CCN(Cc1noc(C2CCC2)n1)C(=O)c1cn2ccsc2n1 : 5.44

// recorded cytotoxicity at 10 µM for CCc1ccc(CN(C)c2ccc(-c3nc(COC)no3)cn2)nc1 : -2.68

compound CN(Cc1ccco1)C(=O)C1CCCc2ccccc21 (configuration not stated) , cytotoxicity at 10 µM observed: 3.68

Reported cytotoxicity at 10 µM for Cc1ccc(C(=O)N2CCCC(n3cccn3)C2)cc1S(C)(=O)=O (configuration not stated) was -4.63

// field: cytotoxicity at 10 µM; key: CS(=O)(=O)CCC(=O)NC(Cc1ccccc1)C1CC1 (configuration not stated) ; value = 11.4

For record CCNC(c1ccc(Cl)cc1)c1cccnc1 (configuration not stated) the listed cytotoxicity at 10 µM is 5.71

---

Here, each record is paired with measured cytotoxicity at 10 µM data.
Test description: Toxicity liver stage against HepG2, at 10uM
Type: cell-based
Design: test concentration 10 uM, cell line HepG2-A16-CD81EGFP
Run parameters: human, HepG2-A16-CD81EGFP cells; read-out: INHIBITION
The reply should be a number in %, with the unit left off.

The cases that follow already have their cytotoxicity at 10 µM on record.
In [3]: df
Out[3]:
                                   compound  value_unit  observed_measurement
0          O=C(c1cnccn1)N1CCC(CN2CCOCC2)CC1           %                  4.55
1               CCOc1ccccc1NC(=O)NCCc1ccoc1           %                 -1.18
2  COc1cccc2c1OCC(Cc1cnc(N)c(C)c1)C2 (configuration not stated)           %                  3.36
3  Cc1cc(C2CCCCCN2Cc2cn(C)nc2C)no1 (configuration not stated)           %                 -20.4
4  O=C(C1CC(=O)N(c2ccccc2)C1)N1CCC2(CC1)OCCO2 (configuration not stated)           %                  1.87
5                CN1Cc2[nH]nc(COCC3CC3)c2C1           %                    18
6  CC[C@@H]1N(Cc2cc(OC)cc(OC)c2)CCC[C@]12CCC(=O)N2C           %                  11.8
7         O=C(CCNc1ncccn1)N1CCN(c2nccs2)CC1           %                 -11.6

The reported cytotoxicity at 10 µM of the compound CCc1ccccc1Nc1noc2c1CN(C(=O)CNC(C)=O)CC2 was -20.1

Given item O=C1CO[C@H]2CN(Cc3ccc(F)c(F)c3)C[C@H]2N1 , the value recorded as its cytotoxicity at 10 µM is -2.49

The measured cytotoxicity at 10 µM associated with CCc1nc(C2CCCN2c2ncc(C(N)=O)cc2Cl)no1 (configuration not stated) reads -3.99

The compound identified as CCN1CCC2(CN(C(C)=O)CC23CCN(C(=O)N(C)C)CC3)C1=O (configuration not stated) registered its cytotoxicity at 10 µM at 4.88

Query O=C(CCc1ccncc1)NCc1csc(Br)c1 yields cytotoxicity at 10 µM of -15.5
